System: K4 kissing-loop RNA reporter;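 further: bound reporter read as fluorescence of individual clusters on recovered sequencing chips by microscopy, with normalized cluster intensities fitted with a binding model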
Experiment: apparent KD of K4 kissing-loop reporter; higher = weaker reporter binding
Settings: Eterna round: R107; input ligand: FMN 200 uM
Mark condition met for reported apparent KD of K4 kissing-loop reporter of 0.2 µM or greater; mark condition not met for anything smaller.

sequence_entry | tested_on | cat
GAGAUAGAGGCGGCCGCCACUAGUGAUGUUAGUGAUGUUAGAAAGAGAAUAGAACAGGGAUUAGAUAGGACCGGGCCAGAUGGAG [vvhmullin] | K4 kissing-loop RNA reporter | condition not met
GGACGACAGUCGGCCGCCACUCACAGCAGCCAGUGAUGUUGGAUUGUAGCGGAGUGAUGUUUCGCGAGGACCGGGACUGCAGUCC [Same State Tryptophan B GF 14] | K4 kissing-loop RNA reporter | condition not met
GCCUAGCAGGGAAGGAGCGCCAUAUAAUUAAAAGGUAAUUAAUGAGUGAUGUUCAAAUAAUGGCAGGUAGGUCGCCCUGCUAGGC [KL-SSArg B10] | K4 kissing-loop RNA reporter | condition met
GCCGUACGCAUGGAUACCAGCUUGUCCGAGUGAUGUUCGGGUCUGAAUGCCGGUAAUAAGAGCCCUUGGCAGCCAUGCGUACGGC | K4 kissing-loop RNA reporter | condition not met
AAGGGCUAGGCGGCCGCCACUUGUUGUGAACACAUACGAGCCAGUGAUGUUGGUAUUGUGUGCGGAAGGACCGGGCCUAGCCGAA [Exclusion - Tryptophan B (Freestyle 22)] | K4 kissing-loop RNA reporter | condition not met
AGCUAGUACGCAGGAUAUCGAACAUCAUUUAGUGAGAUCGAGUGAUGUUCGAUCACGUCUUCAGUUCGAGAAGGGCGUACUAGCA [#01 K4 FMN B Same State] | K4 kissing-loop RNA reporter | condition met
CAUAGUCACUGUGAUACCAGCCCGACUCUUGGCGUCUGCGGUCAAAGCCCAGUGAUGUUGGGCCCUUGGCAGCAUGGCGGCAACA [Xelexebi] | K4 kissing-loop RNA reporter | condition not met

Provenance of the data: the supplement of paper PMC9170038
